# System: U937 cells (human monocytic cell line)
# ASSAY OVERVIEW: BzATP-induced IL-1β secretion inhibition in PMA-differentiated U937 cells
# Format: cell-based
# PARTICULARS: U-937, U937 cells differentiated with PMA, read-out: IL-1β production inhibition grade (IC50)
# Experimental: To evaluate anti-inflammatory efficacy, U937 cells (human monocytic cell line) were differentiated into macrophages using PMA (phorbol 12-myristate 13-acetate) and then induced an inflammatory response with Pam2CSK4 (Pam2CysSerLys4) or BzATP (2′(3′)—O-(4-Benzoylbenzoyl)adenosine 5′-triphosphate), the efficacy of taurine-bile acid derivatives in suppressing inflammatory cytokine (IL-1β, TNF-α) production was measured. […]
Listed below: IC50 values for each entry.
MEASURE: IC50

| ENTRY SMILES | MEASURE | RESULT VALUE |
| --- | --- | --- |
| CC[C@H]1[C@@H](O)[C@@H]2[C@H](C[C@H](O)[C@]3(C)[C@@H]([C@H](C)CCC(=O)N[C@@H](CO)CS(=O)(=O)O)CC[C@@H]23)[C@@]2(C)CC[C@@H](O)C[C@@H]12 | IC50 | ≥ 200 nM |
| C[C@H](CCC(=O)N1CCC[C@@H](S(=O)(=O)O)C1)[C@H]1CC[C@H]2[C@@H]3[C@H](O)C[C@@H]4C[C@H](O)CC[C@]4(C)[C@H]3C[C@H](O)[C@]12C | IC50 | < 50 nM |
| C[C@H](CCC(=O)N(CCN(C)C)CCS(=O)(=O)O)[C@H]1CC[C@H]2[C@@H]3CC[C@@H]4C[C@H](O)CC[C@]4(C)[C@H]3CC[C@]12C | IC50 | < 50 nM |
| CC(C)[C@@H](CS(=O)(=O)O)NC(=O)CC[C@@H](C)[C@H]1CC[C@H]2[C@@H]3CC[C@@H]4CC(=O)CC[C@]4(C)[C@H]3CC[C@]12C | IC50 | ≥ 200 nM |
| CC[C@H]1[C@@H](O)[C@@H]2[C@H](CC[C@]3(C)[C@@H]([C@H](C)CCC(=O)N[C@@H](CS(=O)(=O)O)c4ccccc4)CC[C@@H]23)[C@@]2(C)CC[C@@H](O)C[C@@H]12 | IC50 | 100 to 200 nM |
| C[C@H](CCC(=O)NC[C@H](C)S(=O)(=O)O)[C@H]1CC[C@H]2[C@@H]3[C@H](O)C[C@@H]4C[C@H](O)CC[C@]4(C)[C@H]3C[C@H](O)[C@]12C | IC50 | < 50 nM |
| CC[C@H]1[C@@H](O)[C@@H]2[C@H](C[C@H](O)[C@]3(C)[C@@H]([C@H](C)CCC(=O)NC[C@@H](C)S(=O)(=O)O)CC[C@@H]23)[C@@]2(C)CC[C@@H](O)C[C@@H]12 | IC50 | ≥ 200 nM |
| CC[C@H]1[C@@H](O)[C@@H]2[C@H](CC[C@]3(C)[C@@H]([C@H](C)CCC(=O)N[C@@H](CS(=O)(=O)O)C(C)C)CC[C@@H]23)[C@@]2(C)CC[C@@H](O)C[C@@H]12 | IC50 | ≥ 200 nM |
| C[C@H](CCC(=O)N1CC[C@@H](S(=O)(=O)O)C1)[C@H]1CC[C@H]2[C@@H]3CC[C@@H]4C[C@H](O)CC[C@]4(C)[C@H]3CC[C@]12C | IC50 | ≥ 200 nM |
